# ASSAY SYSTEM: isolated recombinant JAK2 kinase domain (Homo sapiens (Human), UniProt O60674)
# Sequence (O60674 849-1124): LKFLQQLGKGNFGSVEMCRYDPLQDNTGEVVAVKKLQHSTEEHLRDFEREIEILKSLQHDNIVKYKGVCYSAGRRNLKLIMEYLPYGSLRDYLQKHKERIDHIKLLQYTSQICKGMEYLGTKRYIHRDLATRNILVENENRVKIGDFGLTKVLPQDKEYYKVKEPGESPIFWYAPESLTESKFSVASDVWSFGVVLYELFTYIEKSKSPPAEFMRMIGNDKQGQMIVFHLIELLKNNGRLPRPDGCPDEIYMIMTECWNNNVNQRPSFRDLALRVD
# STATED CONDITIONS: read-out: JAK2 Ki; isolated recombinant JAK2 kinase domain, 25 μM ATP
pKi: −log10 of the molar value. Structures can show the parent of a compound that is named as a salt.
REPORTED ENDPOINT: pKi

Examples with their reported pKi follow.
CN1CCC(N(C)C(=O)c2ccc(Nc3nc4c(N5CCC(O)CC5)cccn4n3)cc2)CC1 [Example 1-3, hydrochloride] | 7.03
CN1CCC(N(C)C(=O)c2ccc(Nc3nc4c(N5CCC(C)(O)CC5)cccn4n3)cc2)CC1 [Example 1-6, hydrochloride] | 7.40
CN1CCC(N(C)C(=O)c2ccc(Nc3nc4c(N5CCC(O)(c6ccccc6)CC5)cccn4n3)cc2)CC1 [Example 1-43] | 8.11

A = CN1CCC(N(C)C(=O)c2ccc(Nc3nc4c(N5CCC(CC(N)=O)(c6ccccc6)CC5)cccn4n3)cc2)CC1 [Example 1-30]
B = CN1CCC(N(C)C(=O)c2ccc(Nc3nc4c(N5CCC(C#N)(c6ccccc6)CC5)cccn4n3)cc2)CC1 [Example 1-45]
stdin: Between A and B , whose measured pKi reads higher? Respond using the label that marks the chosen record.
stdout: A
(A: 9.57, B: 7.69)

A = CN1CCC(N(C)C(=O)c2ccc(Nc3nc4c(N5CC=C(c6ccccc6)CCC5)cccn4n3)cc2)CC1 [Example 1-15]
B = COC(=O)CCN1CCN(C(=O)Cn2cc(Nc3nc4c(N5CCC(CO)(c6ccc(Cl)cc6)CC5)cccn4n3)cn2)CC1 [Example 1-290]
stdin: Returns: the label, A or B , whose recorded pKi is the lower number. Give the label of your selection.
stdout: A
(A: 7.91, B: 9.52)

====

# Tested on: JAK1-dependent STAT6 phosphorylation downstream of IL-13 stimulation in TF-1 human erythroleukemia cells
# MEASUREMENT PROTOCOL: cells
# STATED CONDITIONS: TF-1, read-out: IL-13-pSTAT6 IC50
REPORTED ENDPOINT: IC50 (nM)

O=C(CCC(F)(F)F)N1CC=C(c2cccn3nc(Nc4ccc(C(=O)N5CCC6(CCNCC6)C5)cc4)nc23)CC1 | 652
CC(C)CN1CCN(C(=O)c2ccc(Nc3nc4c(C5=CCN(C(=O)CCC(F)(F)F)CC5)cccn4n3)cc2)CC1 | 9.7
Cc1ncccc1CNC(=O)c1ccc(Nc2nc3c(C4=CCN(C(=O)CCC(F)(F)F)CC4)cccn3n2)cc1 | 4.7

1 = C[C@H]1CN(C2CCN(C(=O)c3ccc(Nc4nc5c(N6CCC(CO)(c7ccc(Cl)cc7)CC6)cccn5n4)cc3)CC2)C[C@H](C)O1
2 = CCOC(=O)N1CC=C(c2cccn3nc(Nc4ccc(C(=O)N(C)Cc5ccncc5)cc4)nc23)CC1
stdin: Which entry shows the lesser value of IC50 here, 1 or 2 ? Indicate your choice by writing its label.
stdout: 2
(2: 8.9 nM, 1: 70.2 nM)

P = CCN(Cc1ccncc1)C(=O)c1ccc(Nc2nc3c(N4CCC(CO)(c5ccc(Cl)cc5)CC4)cccn3n2)cc1
Q = CN1CC2CC(C1)N(C(=O)c1ccc(Nc3nc4c(C5=CCN(C(=O)CCC(F)(F)F)CC5)cccn4n3)cc1)C2 (stereo not shown)
stdin: Among P and Q , whose measured IC50 is the smaller figure? Give the label under which the chosen entry appears.
stdout: Q

====

# ASSAY SYSTEM: isolated recombinant JAK2 kinase domain (Homo sapiens (Human))
# STATED CONDITIONS: read-out: JAK2 Ki; isolated recombinant JAK2 kinase domain, 25 μM ATP
pKi: −log10 of the molar value.
REPORTED ENDPOINT: pKi

CN1CCC(N(C)C(=O)c2ccc(Nc3nc4c(N5CCC(CCC#N)(c6ccc(Cl)cc6)CC5)cccn4n3)cc2)CC1 | 9.48

A = CN1CCC(N(C)C(=O)c2ccc(Nc3nc4c(N5CCN6C(=O)NCCC6C5)cccn4n3)cc2)CC1 (stereo not drawn)
B = CN1CCC(N(C)C(=O)c2ccc(Nc3nc4c(N5CCC(CC#N)(C6CCCC6)CC5)cccn4n3)cc2)CC1
stdin: # return whichever of A and B has the smaller pKi Response format: the label of the selected entry.
stdout: A

====

# Tested on: JAK1-dependent STAT6 phosphorylation downstream of IL-13 stimulation in TF-1 human erythroleukemia cells
# MEASUREMENT PROTOCOL: cells
# STATED CONDITIONS: TF-1, read-out: IL-13-pSTAT6 IC50
pIC50: −log10 of the molar value.
REPORTED ENDPOINT: pIC50

Before answering, review these 3 worked examples.
CCOC(=O)N1CC=C(c2cccn3nc(Nc4ccc(C(=O)NCCc5ccccn5)cc4)nc23)CC1 [Example 2-423] | 7.76
C[C@H]1CN(CCNC(=O)c2ccc(Nc3nc4c(N5CCC(CO)(c6ccc(Cl)cc6)CC5)cccn4n3)cc2)C[C@H](C)O1 [Example 1-277] | 7.64
CCOC(=O)N1CC=C(c2cccn3nc(Nc4ccc(C(=O)N5CCCN(c6ccncc6)CC5)cc4)nc23)CC1 [Example 2-429] | 7.56

1 = O=C(CCC(F)(F)F)N1CC=C(c2cccn3nc(Nc4ccc(C(=O)N(Cc5ccccn5)C5CC5)cc4)nc23)CC1 [Example 2-272]
2 = CN1CCC(N(C)C(=O)c2ccc(Nc3nc4c(N5CCC(CC(=O)N(C)C)(c6ccc(Cl)cc6)CC5)cccn4n3)cc2)CC1 [Example 1-300]
3 = O=C(CCC(F)(F)F)N1CC=C(c2cccn3nc(Nc4ccc(C(=O)N5CCOC6CCNCC65)cc4)nc23)CC1 (centres unmarked) [Example 2-453]
4 = CCOC(=O)N1CC=C(c2cccn3nc(Nc4ccc(C(=O)NCC5CCCCN5)cc4)nc23)CC1 (centres unmarked) [Example 2-114]
stdin: Arrange the 4 entries by pIC50 so the values rise. The response must list the labels following the requested ordering.
stdout: 3, 4, 2, 1
(3: 6.77, 4: 7.16, 2: 7.58, 1: 8.41)

====

# Test system: JAK1-dependent STAT6 phosphorylation downstream of IL-13 stimulation in TF-1 human erythroleukemia cells
# MEASUREMENT PROTOCOL: cells
# STATED CONDITIONS: TF-1, read-out: IL-13-pSTAT6 IC50
REPORTED ENDPOINT: IC50 (nM)

CN1CCC2(C1)CN(C(=O)c1ccc(Nc3nc4c(C5=CCN(C(=O)CCC(F)(F)F)CC5)cccn4n3)cc1)C2 | 12.3
CN1CCC(N(C)C(=O)c2ccc(Nc3nc4c(C5=CCN(C(=O)OCC(F)(F)F)CC5)cccn4n3)cc2)CC1 | 9.8

A = COCC1(c2ccc(Cl)cc2)CCN(c2cccn3nc(Nc4ccc(C(=O)N(C)C5CCN(C)CC5)cc4)nc23)CC1
B = CN(Cc1ccncc1)C(=O)c1ccc(Nc2nc3c(C4=CCN(C(=O)CCC(F)(F)F)CC4)cccn3n2)cc1
stdin: Looking at A and B , which one comes out lower in IC50 terms? Output the label that corresponds to your choice.
stdout: B

A = CN1CCC(N(C)C(=O)c2ccc(Nc3nc4c(C5=CCN(C(=O)CCC(F)(F)F)CC5)cccn4n3)cc2)CC1
B = CN1CCCCC1C1CCCN1C(=O)c1ccc(Nc2nc3c(C4=CCN(C(=O)CCC(F)(F)F)CC4)cccn3n2)cc1 (centres unmarked)
C = O=C(CCC(F)(F)F)N1CC=C(c2cccn3nc(Nc4ccc(C(=O)N5CCC6(CCNCC6)CC5)cc4)nc23)CC1
stdin: Exam item: list the entries in increasing order of IC50. Enter labels, ranked according to the request.
stdout: B, A, C
(B: 8.2 nM, A: 12.7 nM, C: 80.3 nM)

====

# Tested on: JAK1-dependent STAT6 phosphorylation downstream of IL-13 stimulation in TF-1 human erythroleukemia cells
# MEASUREMENT PROTOCOL: cells
# STATED CONDITIONS: TF-1, read-out: IL-13-pSTAT6 IC50
pIC50: −log10 of the molar value.
REPORTED ENDPOINT: pIC50

I = CN1CCC(N(C)C(=O)c2ccc(Nc3nc4c(N5CCC(C)(c6ccc(Cl)cc6)CC5)cccn4n3)cc2)CC1
II = O=C(NCCN1CCCCC1)c1ccc(Nc2nc3c(N4CCC(O)(c5ccc(Cl)cc5)CC4)cccn3n2)cc1
stdin: Between I and II , whose measured pIC50 reads higher? Identify your pick by its label.
stdout: II

====

# Tested on: JAK1-dependent STAT6 phosphorylation downstream of IL-13 stimulation in TF-1 human erythroleukemia cells
# MEASUREMENT PROTOCOL: cells
# STATED CONDITIONS: TF-1, read-out: IL-13-pSTAT6 IC50
REPORTED ENDPOINT: IC50 (nM)

Known results for compounds:
O=C(CCC(F)(F)F)N1CC=C(c2cccn3nc(Nc4ccc(C(=O)N5C[C@@H]6CCN[C@@H]6C5)cc4)nc23)CC1 | 147
CN1CCCC1CCNC(=O)c1ccc(Nc2nc3c(N4CCC(O)(c5ccc(Cl)cc5)CC4)cccn3n2)cc1 (centres unmarked) | 45
CC(C)N1CCC(CN(C)C(=O)c2ccc(Nc3nc4c(C5=CCN(C(=O)CCC(F)(F)F)CC5)cccn4n3)cc2)C1 (centres unmarked) | 26
O=C(NCC1CC12CCNCC2)c1ccc(Nc2nc3c(C4=CCN(C(=O)CCC(F)(F)F)CC4)cccn3n2)cc1 (centres unmarked) | 141
CNC(=O)C1CN(C(C)C)CCN1C(=O)c1ccc(Nc2nc3c(N4CCC(O)(c5ccc(Cl)cc5)CC4)cccn3n2)cc1 (centres unmarked) | 31.1

a = NCC1CCN(C(=O)c2ccc(Nc3nc4c(C5=CCN(C(=O)CCC(F)(F)F)CC5)cccn4n3)cc2)C1 (centres unmarked)
b = CN1CCN(CCCNC(=O)c2ccc(Nc3nc4c(C5=CCN(C(=O)CCC(F)(F)F)CC5)cccn4n3)cc2)CC1
c = O=C(NC1CCNCC1)c1ccc(Nc2nc3c(N4CCC(O)(c5ccc(Cl)cc5)CC4)cccn3n2)cc1
stdin: Ordering: ascending IC50. Kindly provide the labels arranged according to the requested ordering.
stdout: b, c, a
